Entries and their measured pIC50 follow.
biological target: RNA-directed RNA polymerase (Hepacivirus hominis); experiment: Inhibitory activity against HCV delta 21 NS5b RNA polymerase
// returns pIC50 (minus log10 of molar concentration), number only

Past entries and their recorded results:
Cc1ccc(/C=C2\SC(=S)N(NS(=O)(=O)c3ccccc3)C2=O)cc1; 5.00
O=C1/C(=C/c2ccc(C(F)(F)F)cc2)SC(=S)N1NS(=O)(=O)c1ccccc1; 6.00
O=C1/C(=C/c2ccc3c(c2)OCO3)SC(=S)N1NS(=O)(=O)c1ccccc1; 4.82
N#Cc1ccc(/C=C2\SC(=S)N(N)C2=O)cc1; 5.15
O=C1/C(=C/c2ccc(Cl)c(Cl)c2)SC(=S)N1NS(=O)(=O)c1cccs1; 6.70
O=C1/C(=C/c2ccc(-c3cc(C(F)(F)F)ccc3Cl)o2)SC(=S)N1NS(=O)(=O)c1ccccc1; 7.00
NN1C(=O)/C(=C/c2ccc([N+](=O)[O-])cc2)SC1=S; 6.00
C/C(=C1/SC(=S)N(NS(=O)(=O)c2ccccc2)C1=O)c1ccc(Cl)c(Cl)c1; 6.22
Cc1ccc(/C=C2\SC(=S)N(NS(=O)(=O)c3ccccc3)C2=O)cc1C; 5.10
O=S(=O)(NN1C(=S)SC(Cc2ccc(Cl)c(Cl)c2)C1O)c1ccccc1 (stereo unspecified); 4.57

Consider the additional compound presented here.
Q) Consider the compound shown here: N#Cc1ccc(/C=C2\SC(=S)N(NS(=O)(=O)c3ccccc3)C2=O)cc1 What is its recorded pIC50?
A) 6.05

* * *

biological target: RNA-directed RNA polymerase (Hepacivirus hominis, UniProt O39930); assay: Inhibitory activity against HCV delta 21 NS5b RNA polymerase
Sequence (O39930 whole entry): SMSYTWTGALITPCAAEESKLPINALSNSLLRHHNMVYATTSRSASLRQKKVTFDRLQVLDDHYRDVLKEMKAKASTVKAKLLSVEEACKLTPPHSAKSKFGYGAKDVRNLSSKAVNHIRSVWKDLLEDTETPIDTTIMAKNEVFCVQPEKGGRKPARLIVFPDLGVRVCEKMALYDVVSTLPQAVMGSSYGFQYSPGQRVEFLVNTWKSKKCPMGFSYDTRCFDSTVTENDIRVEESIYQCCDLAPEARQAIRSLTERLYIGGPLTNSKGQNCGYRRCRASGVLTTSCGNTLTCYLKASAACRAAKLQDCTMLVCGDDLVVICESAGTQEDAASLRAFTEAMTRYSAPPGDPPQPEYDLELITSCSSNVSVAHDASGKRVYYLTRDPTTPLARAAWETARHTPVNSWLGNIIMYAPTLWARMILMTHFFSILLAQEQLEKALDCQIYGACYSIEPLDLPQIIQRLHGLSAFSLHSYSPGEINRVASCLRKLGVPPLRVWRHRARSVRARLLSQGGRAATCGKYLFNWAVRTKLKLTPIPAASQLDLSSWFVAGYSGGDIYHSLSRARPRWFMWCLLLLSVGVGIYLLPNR
value-type: log10 IC50 (log10 of the value in µM)
On a log10 scale: recorded IC50, unit µM.

NN1C(=O)/C(=C/c2ccc(Cl)cc2)SC1=S; 1.20
O=C1/C(=C/c2ccc(F)c(F)c2F)SC(=S)N1NS(=O)(=O)c1ccccc1; 0.28
O=C1/C(=C/c2ccc3ccccc3c2)SC(=S)N1NS(=O)(=O)c1ccccc1; 0.48
NN1C(=O)/C(=C/c2ccc(F)cc2)SC1=S; 0.85
O=C1C(Cc2ccc(Cl)c(Cl)c2)SC(=S)N1NS(=O)(=O)c1ccccc1 (stereo not given); 1.04

Q) Look up log10 IC50 for this compound: CS(=O)(=O)NN1C(=O)/C(=C/c2ccc(Cl)c(Cl)c2)SC1=S
A) 0.30

Q) How about this compound: O=C1/C(=C/c2ccc(Br)cc2)SC(=S)N1NS(=O)(=O)c1ccccc1
A) -0.15
